Assay: Cytotoxicity assay (CCK-8)
Format: cell-based
Conditions: African green monkey
readout-type: CC50 at 48 h (µM)

1. C=C1CC[C@H]2C(=C)CC[C@H]3C(=C)C(=O)O[C@@H]3[C@@H]12 [Dehydrocostus lactone]	36.2
2. COc1ccc(C[C@@H]2c3cc(Oc4cc(C[C@@H]5c6cc(O)c(OC)cc6CCN5C)ccc4O)c(OC)cc3CCN2C)cc1	40
3. COC(=O)[C@@]12OC[C@]34[C@H]([C@@H](O)[C@@H]1O)[C@@]1(C)CC(=O)C(O)=C(C)[C@@H]1C[C@H]3OC(=O)[C@H](OC(=O)CC(C)C)[C@@H]24	31.4

The reported numbers originate from paper PMC7532339.
